# Assay System: p38 MAPKα (Homo sapiens (Human), UniProt Q16539)
# Sequence (Q16539 whole entry): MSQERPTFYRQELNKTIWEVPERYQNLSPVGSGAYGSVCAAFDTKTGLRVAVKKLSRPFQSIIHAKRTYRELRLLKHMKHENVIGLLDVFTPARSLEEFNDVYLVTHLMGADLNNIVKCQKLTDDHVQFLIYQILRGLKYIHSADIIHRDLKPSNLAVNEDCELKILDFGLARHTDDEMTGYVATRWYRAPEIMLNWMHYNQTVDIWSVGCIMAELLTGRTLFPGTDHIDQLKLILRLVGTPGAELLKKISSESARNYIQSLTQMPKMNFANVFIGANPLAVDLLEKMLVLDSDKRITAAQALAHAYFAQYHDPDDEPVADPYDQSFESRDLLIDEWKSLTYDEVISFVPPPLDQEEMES
// reported IC50 for each item listed
Measurement Name: IC50

COc1ccc(-n2nc(C(C)(C)C)cc2NC(=O)Nc2ccc(Oc3ccnc(Nc4ccc5[nH]nc(C(=O)N6CCOCC6)c5c4)n3)c3ccccc23)cn1 :: 10 nM
CC(C)(C)c1cc(NC(=O)Nc2ccc(Oc3ccnc(Nc4ccc5[nH]nnc5c4)n3)c3ccccc23)n(-c2ccc(OCCN3CCOCC3)cc2)n1 :: 66 nM
Cc1ccc(-n2nc(C(C)(C)C)cc2NC(=O)Nc2ccc(Oc3ccnc(Nc4ccc5c(c4)CC(=O)N5)n3)c3ccccc23)cc1 :: 12 nM

###

# Assay System: p38 MAPKα (Homo sapiens (Human), UniProt Q16539)
Recorded log10 IC50, one value per entry.
Measurement Name: log10 IC50 (log10 of the value in nM)

Cc1ccc(-n2nc(C(C)(C)C)cc2NC(=O)Nc2ccc(Oc3ccnc(Nc4ccc5ncsc5c4)n3)c3ccccc23)cc1 :: 2.64
Cc1ccc(-n2nc(C(C)(C)C)cc2NC(=O)Nc2ccc(Oc3ccnc(Nc4ccc5[nH]nc(C(=O)NCCN6CCOCC6)c5c4)n3)c3ccccc23)cc1 :: 1.28
Cc1ccc(-n2nc(C(C)(C)C)cc2NC(=O)Nc2ccc(Oc3ccnc(Nc4ccc5c(c4)CC(=O)N5C)n3)c3ccccc23)cc1 :: 1.79
CC(C)(C)c1cc(NC(=O)Nc2ccc(Oc3ccnc(Nc4ccc5[nH]ncc5c4)n3)c3ccccc23)n(-c2ccc(=O)n(CCN3CCOCC3)c2)n1 :: 1.51
COc1ccc(-n2nc(C(C)C)cc2NC(=O)Nc2ccc(Oc3cc(Nc4ccc5[nH]ncc5c4)ncn3)c3ccccc23)cc1 :: 1.00
CC(C)(C)c1cc(NC(=O)Nc2ccc(Oc3ccnc(Nc4ccc5c(c4)NC(=O)C5)n3)c3ccccc23)n(-c2ccc(OCCN3CCOCC3)nc2)n1 :: 1.64
CC(C)c1cc(NC(=O)Nc2ccc(Oc3ccnc(Nc4ccc5c(c4)NC(=O)C5)n3)c3ccccc23)n(-c2ccc(OCCN3CCOCC3)cc2)n1 :: 1.15
Cc1ccc(-n2nc(C(C)(C)C)cc2NC(=O)Nc2ccc(Oc3ccnc(Nc4cccc5cc[nH]c45)n3)c3ccccc23)cc1 :: 2.58
COc1ccc(-n2nc(C(C)(C)C)cc2NC(=O)Nc2ccc(Oc3ccnc(Nc4cc(C)c5[nH]ncc5c4)n3)c3ccccc23)cc1 :: 1.83
COc1ccc(-n2nc(C(C)(C)C)cc2NC(=O)Nc2ccc(Oc3ccnc(Nc4ccc5[nH]ccc5c4)n3)c3ccccc23)cn1 :: 1.80
Cc1ccc(-n2nc(C(C)(C)C)cc2NC(=O)Nc2ccc(Oc3ccnc(Nc4ccc5c(ccn5C)c4)n3)c3ccccc23)cc1 :: 3.13
Cc1ccc(-n2nc(C(C)(C)C)cc2NC(=O)Nc2ccc(Oc3ccnc(Nc4ccc5cn[nH]c5c4)n3)c3ccccc23)cc1 :: 2.39
CC(C)(C)c1cc(NC(=O)Nc2ccc(Oc3ccnc(Nc4ccc5[nH]ncc5c4)c3)c3ccccc23)n(-c2cccc(OCCN3CCOCC3)c2)n1 :: 1.34
Cc1ccc(-n2nc(C(C)(C)C)cc2NC(=O)Nc2ccc(Oc3ccnc(Nc4ccc5scnc5c4)n3)c3ccccc23)cc1 :: 2.49
Cc1ccc(-n2nc(C(C)(C)C)cc2NC(=O)Nc2ccc(Oc3ccnc(Nc4cnc5[nH]ccc5c4)n3)c3ccccc23)cc1 :: 1.90
CC(C)c1cc(NC(=O)Nc2ccc(Oc3ccnc(Nc4ccc5[nH]ncc5c4)c3)c3ccccc23)n(-c2cccc(OCCN3CCOCC3)c2)n1 :: 0.30
CC(C)(C)c1cc(NC(=O)Nc2ccc(Oc3ccnc(Nc4ccc5[nH]ccc5c4)n3)c3ccccc23)n(-c2ccc(O)cc2)n1 :: 2.52
CC(C)(C)c1cc(NC(=O)Nc2ccc(Oc3cc(Nc4ccc5[nH]ncc5c4)ncn3)c3ccccc23)n(-c2ccc(OCCN3CCOCC3)cc2)n1 :: 1.52
CC(C)(C)c1cc(NC(=O)Nc2ccc(Oc3ccnc(Nc4ccc5[nH]c(=O)oc5c4)n3)c3ccccc23)n(-c2ccc(OCCN3CCOCC3)cc2)n1 :: 2.62
COc1ccc(-n2nc(C(C)(C)C)cc2NC(=O)Nc2ccc(Oc3ccnc(Nc4ccc5[nH]ncc5c4)n3)c3ccccc23)cc1 :: 1.83
CC(C)(C)c1cc(NC(=O)Nc2ccc(Oc3ccnc(Nc4ccc5[nH]ncc5c4)n3)c3ccccc23)n(-c2ccc(=O)n(CCO)c2)n1 :: 0.85
CC(C)(C)c1cc(NC(=O)Nc2ccc(Oc3ccnc(Nc4ccc5c(c4)CS(=O)(=O)C5)n3)c3ccccc23)n(-c2ccc(OCCN3CCOCC3)cc2)n1 :: 1.83
COc1ccc(-n2nc(C(C)(C)C)cc2NC(=O)Nc2ccc(Oc3ccnc(Nc4ccc5[nH]nc(OCCN6CCOCC6)c5c4)n3)c3ccccc23)cc1 :: 1.23
COc1ccc(-n2nc(C(C)C)cc2NC(=O)Nc2ccc(Oc3ccnc(Nc4ccc5[nH]nc(C(=O)N(C)C)c5c4)n3)c3ccccc23)cc1 :: 1.08
COc1ccc(-n2nc(C(C)(C)C)cc2NC(=O)Nc2ccc(Oc3ccnc(Nc4ccc5c(cnn5CCN5CCOCC5)c4)n3)c3ccccc23)cc1 :: 1.18
